Where do the numbers come from? From PubChem BioAssay (NCATS).

Protocol details: Quantitative High-Throughput drug screen in 47 multiple myeloma cell lines against the NCATS MIPE library collection: OPM2_DSMZ cell viability assay (AID 1919872); note: nearly all actives have a fitted effect of over 30% in size; note: potency is the fitted concentration of half-maximal effect
Measurement parameters: OPM2 myeloma viability, CellTiter-Glo ATP luminescence, 48 h; series mostly up to 45.8 µM
Records with an inconclusive call do not appear. The source made the active and inactive calls. Calls come from the whole dose curve; as a rule, active = well fitted cell-killing curve with a large enough effect; inconclusive = small, poorly fitted or top-dose-only effect, or effect the other way; inactive = no such curve, though single readings can be large or run the other way.
Quantity kind: Potency

// known answers, use as guide
{"columns": ["Compound", "Potency"],
 "data": [
  ["CN1[C@H]2CC[C@H]1CC(OC(=O)c1c[nH]c3ccccc13)C2 (stereo partly drawn)", "inactive"],
  ["COc1ccc(-c2oc3c(CC=C(C)C)c(O)cc(O)c3c(=O)c2O)cc1", "inactive"],
  ["Cc1ccc(C(=O)N(CCCN)[C@@H](c2nc3cc(Cl)ccc3c(=O)n2Cc2ccccc2)C(C)C)cc1", "inactive"],
  ["COC(=O)N1CCN(Cc2cccc(NC(=O)Nc3ccc(C)nc3)c2F)CC1", "inactive"],
  ["Cc1cnc(Nc2cccc(CN3CCOCC3)c2)nc1Nc1cccc(S(=O)(=O)NC(C)(C)C)c1", "9.35 µM (active)"],
  ["O=C(c1ccc(C=Cc2n[nH]c3ccccc23)cc1)N1CCNCC1", "10.5 µM (active)"]
]}

Input line: Reported Potency, compound N[C@@H](CC(=O)N1CCn2c(nnc2C(F)(F)F)C1)Cc1cc(F)c(F)cc1F : ____
Output line: inactive

Input line: What about N#CC(c1ccc(Cl)cc1)c1c(Cl)cc(-n2ncc(=O)[nH]c2=O)cc1Cl (stereo not drawn) ?
Output line: inactive

Input line: Then this compound: CC(=O)O[C@]1(C(C)=O)CC[C@H]2[C@@H]3C=C(Cl)C4=CC(=O)[C@@H]5C[C@H]5[C@]4(C)[C@@H]3CC[C@@]21C
Output line: inactive

Input line: Next compound up: C=C[C@@H]1CN2CCC1C[C@@H]2C(O)c1ccnc2ccc(OC)cc12 (stereo partly drawn)
Output line: inactive

Input line: Also need CNC(=O)[C@H](CC1=CN=C2C=CCC=C12)NC(=O)[C@@H](CC(=O)NO)CC(C)C , thanks.
Output line: inactive

Input line: Thanks! And CNc1nc(Nc2ccc(C(=O)N3CCOCC3)cc2OC)ncc1Cl ?
Output line: inactive

Input line: Continue with CC1=C(CC(=O)O)c2cc(F)ccc2C1=Cc1ccc(S(C)=O)cc1 (stereo not drawn)
Output line: inactive

Input line: Same for C[C@@H](NC(=O)c1ncnc(N)c1Cl)c1ncc(C(=O)Nc2cc(C(F)(F)F)c(Cl)cn2)s1
Output line: 9.35 µM (active)

Input line: Here is the next compound: CC1CNc2c(cccc2S(=O)(=O)N[C@@H](CCCN=C(N)N)C(=O)N2CC[C@@H](C)C[C@@H]2C(=O)O)C1 (stereo partly drawn)
Output line: inactive

Input line: Then what about the compound Cc1cc(CS(=O)(=O)c2ccccc2)cc(OCc2ccc(CN3CCC[C@H]3CO)cc2)c1 ?
Output line: inactive

Input line: Then what about the compound N#CC(c1ccnc(NCCc2cccnc2)n1)c1nc2ccccc2s1 (stereo not drawn) ?
Output line: 26.4 µM (active)

Input line: Try this compound next: CC(C)[C@H](O)C(=O)N[C@@H](C)C(=O)N[C@@H]1C(=O)N(C)CCc2ccccc21
Output line: inactive

Input line: COc1ccc(C=CC(=O)Nc2ccccc2C(=O)O)cc1OC ?
Output line: inactive

Input line: Let us now turn to CN(C)CC[C@H](CSc1ccccc1)Nc1ccc(S(=O)(=O)NC(=O)c2ccc(N3CCN(Cc4ccccc4-c4ccc(Cl)cc4)CC3)cc2)cc1[N+](=O)[O-]
Output line: 16.6 µM (active)

Input line: Next entry: CCOC(=O)[C@H]1O[C@H]1C(=O)N[C@@H](CC(C)C)C(=O)NCCC(C)C
Output line: inactive

Input line: Next compound up: Cc1c(-c2cccc3c(CCCOc4cccc5ccccc45)c(C(=O)O)n(Cc4cccnc4)c23)c(COc2ccc(N3CCN([S+](=O)([O-])N(C)C)CC3)cc2)nn1C
Output line: 16.6 µM (active)

Input line: Param item: O=c1[nH]c(=O)n([C@H]2C[C@@H](O)[C@@H](CO)O2)cc1C(F)(F)F
Output line: inactive

Input line: Try the compound CC(C)CN(C[C@@H](O)[C@H](Cc1ccccc1)NC(=O)O[C@H]1CO[C@H]2OCC[C@H]21)S(=O)(=O)c1ccc(N)cc1
Output line: inactive

Input line: Request: C[C@@H]1C[C@H]2[C@@H]3CCC4=CC(=O)C=C[C@]4(C)[C@@]3(F)[C@@H](O)C[C@]2(C)[C@@]1(O)C(=O)CO
Output line: inactive

Input line: Quick one: O=c1[nH]nc(OCCCc2ccc(Cl)cc2)c(NCc2cccnc2)c1Br
Output line: 23.5 µM (active)

Input line: Ok, now CS(=O)(=O)c1ccc(C2=C(c3ccccc3)C(=O)OC2)cc1
Output line: inactive

Input line: Moving on to the next compound: CSc1cccc(Nc2ncc3cc(-c4c(Cl)cccc4Cl)c(=O)n(C)c3n2)c1
Output line: 1.32 µM (active)

Input line: Next: CN1C(=O)C(Cc2c[nH]c3ccccc23)NC1=S (stereo not drawn)
Output line: inactive

Input line: Another compound to check: CC(NCCc1ccc(O)cc1)C(O)c1ccc(O)cc1 (stereo not drawn)
Output line: inactive

====

Protocol details: Quantitative High-Throughput drug screen in 47 multiple myeloma cell lines against the NCATS MIPE library collection: KMS11_JCRBsus cell viability assay (AID 1919873); note: nearly all actives have a fitted effect of over 50% in size; note: potency is the fitted concentration of half-maximal effect
Measurement parameters: KMS11 myeloma viability, CellTiter-Glo ATP luminescence, 48 h; series mostly up to 45.8 µM
Results filed as inconclusive are left out. Activity calls are given as the source filed them. Calls come from the whole dose curve; as a rule, active = well fitted cell-killing curve with a large enough effect; inconclusive = small, poorly fitted or top-dose-only effect, or effect the other way; inactive = no such curve, though single readings can be large or run the other way.
Quantity kind: Potency

In the examples that follow, each entry is paired with its recorded Potency.
{"columns": ["Molecule", "Potency"],
 "data": [
  ["CC(C)CNc1ccnc(NCc2csc(-c3ccccc3)n2)n1", "13.2 µM (active)"],
  ["O=c1[nH]c(=O)n([C@H]2C[C@@H](O)[C@@H](CO)O2)cc1I", "2.09 µM (active)"],
  ["CCCCOCCOc1nc(-c2ccc(C(=O)O)c(F)c2)sc1C", "inactive"],
  ["NC[C@H]1O[C@H](O[C@@H]2[C@@H](O)[C@@H](O[C@H]3O[C@H](CO)[C@@H](O)[C@H](N)[C@@H]3O)[C@H](N)C[C@@H]2N)[C@H](O)[C@@H](O)[C@H]1O", "inactive"],
  ["CC[C@H](C=C[C@@H](C)[C@H]1CC[C@H]2[C@@H]3CC=C4C[C@@H](O)CC[C@]4(C)[C@@H]3CC[C@]12C)C(C)C", "5.12 µM (active)"],
  ["O=C1CCCC(=O)C1C(=O)c1ccc(C(F)(F)F)cc1[N+](=O)[O-]", "inactive"],
  ["CN(CC=CC#CC(C)(C)C)Cc1cccc2ccccc12", "inactive"],
  ["C[C@@H](O)[C@H]1C(=O)N2C(C(=O)OCOC(=O)C(C)(C)C)=C(SC3CN(C4=NCCS4)C3)[C@H](C)[C@H]12", "inactive"],
  ["Cc1ccc(C(=O)N(CCCN)[C@@H](c2oc3cc(Cl)ccc3c(=O)c2Cc2ccccc2)C(C)C)cc1", "inactive"],
  ["Cc1cccc2c1CC[C@H](CN1CCC(c3c(Cl)cccc3Cl)CC1)C[C@@H]2O", "14.8 µM (active)"]
]}

Input line: Need Potency, item CC[C@H](C)n1cc(C)c2c(C(=O)NCc3c(C)cc(C)[nH]c3=O)cc(-c3ccc(N4CCNCC4)nc3)cc21
Output line: 23.5 µM (active)

Input line: Try the molecule COc1cc2nccc(Oc3ccc(NC(=O)Nc4cc(C)on4)c(Cl)c3)c2cc1OC
Output line: 20.9 µM (active)

Input line: Lookup Cn1cnc(-c2cc3nccc(Oc4ccc(NC(=S)NC(=O)Cc5ccccc5)cc4F)c3s2)c1
Output line: 20.9 µM (active)

Input line: And OC[C@H]1O[C@@H](OCCc2ccc(O)cc2)[C@H](O)[C@@H](O)[C@H]1O ?
Output line: inactive

Input line: # repeat for Cc1cnc(CNC(=O)c2c(=O)c3ccc(N4CCCN(C)CC4)nc3n3c2sc2ccccc23)cn1
Output line: inactive

Input line: Then COc1cc(F)c(C(C)C)cc1-c1ccc(C(F)(F)F)cc1CN1C(=O)O[C@H](c2cc(C(F)(F)F)cc(C(F)(F)F)c2)[C@@H]1C ?
Output line: inactive

Input line: Okay, and CC[C@@H]([C@H](C)O)n1ncn(-c2ccc(N3CCN(c4ccc(OCC5CO[C@@](Cn6cncn6)(c6ccc(F)cc6F)C5)cc4)CC3)cc2)c1=O (some centres not stated) ?
Output line: 11.8 µM (active)

====

Protocol details: qHTS drug screen for cell cycle checkpoint inhibitors in PARPi-resistant BRCA-mutant ovarian cancer cell lines. (AID 1963452)
Measurement parameters: PEO1/OlaR viability, CellTiter-Glo luminescence, 96 h; measured here: PEO1 parental Z-AUC; stronger effect = lower value
I'd appreciate it if you could label each record using Z-AUC and these ranges: lowest (below -0.5), middle (-0.5 to below 0.4), highest (0.4 or more)

Consider the worked cases shown below.
{"columns": ["Compound string", "Class"],
 "data": [
  ["O=S(=O)(O)c1ccc2cc(N=Nc3cc(S(=O)(=O)O)c4cccnc4c3O)ccc2c1", "middle"],
  ["CNC(=O)c1cc(COc2nnc(Nc3ccc(Cl)cc3)c3ccoc23)ccn1", "highest"],
  ["COc1cc2ncnc(Nc3cc(Br)c(O)c(Br)c3)c2cc1OC", "lowest"]
]}

Input line: Using the reported Z-AUC, which band applies to CNC(=O)c1cc(Oc2ccc(NC(=O)Nc3ccc(Cl)c(C(F)(F)F)c3)c(F)c2)ccn1 ?
Output line: highest

Input line: One more molecule: COc1ccc(-c2oc3c(CC=C(C)C)c(O)cc(O)c3c(=O)c2O)cc1
Output line: highest

Input line: Then this molecule: CN1CCN(c2ncc(-c3cc(Cl)cc(Cl)c3Cl)c(N)n2)CC1
Output line: lowest

Input line: # iterate: O=C(Nc1cccc(C(F)(F)F)c1)Nc1cc(S(=O)(=O)NC2CC2)ccc1-c1ccsc1
Output line: middle

Input line: Next record, please: Cn1c(=O)c(-c2c(Cl)cccc2Cl)cc2cnc(Nc3cccc(C(=O)O)c3)nc21
Output line: highest

Input line: Another: COc1ccc2nc3cc(Cl)ccc3c(Nc3cc(CN4CCCC4)c(O)c(CN4CCCC4)c3)c2n1
Output line: highest

Input line: Would you kindly repeat that for COc1ccc(CCC(=O)Nc2nc3ccc(Cl)cc3s2)cc1OC ?
Output line: lowest
